assay: Stat Signaling Pathway (AID 446); details: ME-180 SIE beta-lactamase reporter, IL-6 stimulated, 5 h; at 7.69 µM (top of the series) unless noted;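 further: ME-180 cervical cancer cells given 40 pM IL-6 alongside compound; SIE-controlled beta-lactamase reporter measured as 460/530 nm FRET emission ratio; on the % scale 0 is the no-effect control and ±100 the full control effect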
Results filed as inconclusive are left out.
Measured Property: activity, negative = inhibition (%)
Return type: number; implicit unit %.

The following compounds have reported results that may help.
>>> reported("CC(=O)N1CCC2(CC1)CN(Cc1ccccc1)C2")
-5.51
>>> reported("c1ccc(-c2cccc(N3CC[C@@]4(CCCNC4)C3)c2)cc1")
-6.03

I would be grateful if you could share the reported activity, negative = inhibition for `Cc1ccccc1-c1nc(NC2CCNCC2)c2ccccc2n1` . -7.16

I would be grateful if you could share the reported activity, negative = inhibition for `CN(C)c1ncc2nc(-c3cn(C)c4ccccc34)c(=O)n(C[C@H]3CCCO3)c2n1` . -10.1

###

Test: qHTS Assay for Lipid Storage Modulators (AID 1519)
Conditions: Drosophila S3 cells, BODIPY lipid droplet/cell ratio, laser cytometry; measured here: cell count channel max response; cells loaded with oleic acid
Procedure: NIH Molecular Libraries Probe Production Centers Network [MLPCN] NIH Chemical Genomics Center [NCGC] Assay Submitter (PI): Beller, Mathias; Max-Planck-Institut fur Biophysikalische Chemie […] We dispensed 4 uL of cells at 1.25 x 10^6 cells/mL into LoBase Aurora COC 1,536-well plates (black walled, clear bottom) with a bottle-valve solenoid-based dispenser (Aurora) to obtain 5,000 cells/well. […] The ratio of the total intensity in PMT channel 1 over total intensity of channel 3 was also calculated. […]
Results filed as inconclusive are left out.
Decide using max response alone. Strictly below 20%: fulfilled. Equal to or above 20%: not fulfilled.

>>> class("CC(=O)NCCNc1ncnc2ccc(-c3cccc(NS(C)(=O)=O)c3)cc12")
"not fulfilled"
>>> class("CC(=O)NCCNc1ncnc2ccc(-c3c(C)noc3C)cc12")
"not fulfilled"
>>> class("Cc1nc2cnc(N3CCNCC3)nc2n(Cc2cccs2)c1=O")
"not fulfilled"
>>> class("COc1ccc(-n2c(=O)c(-c3cccc(C#N)c3)nc3cnc(N4CCNCC4)nc32)cc1")
"not fulfilled"
>>> class("Cc1cccc(CNc2cc(-c3c(C)noc3C)ncn2)c1")
"fulfilled"

Lab note: max response threshold 20%. Does this compound come in strictly under it? `CS(=O)(=O)N1CCC[C@@]2(CCN(Cc3nccs3)C2)C1` fulfilled

Lab note: max response threshold 20%. Does this compound come in strictly under it? `COc1ccc(-n2c(=O)c(-c3cn(C)c4ccccc34)nc3cnc(N4CCOCC4)nc32)cc1` fulfilled

###

experiment: HPAF-II Cancer Cell Toxicity qHTS against the NCATS CANVASS Library (AID 1347346); conditions: HPAF-II viability, CellTiter-Glo ATP luminescence, 72 h; series mostly up to 38.3 µM; further: on the % scale 0 is the no-effect control and ±100 the full control effect; nearly all actives have a fitted effect of over 55% in size
Results filed as inconclusive are left out. Active and inactive are the calls of the source. Calls come from the whole dose curve; as a rule, active = well fitted cell-killing curve with a large enough effect; inconclusive = small, poorly fitted or top-dose-only effect; inactive = flat fitted curve, though single readings scatter.
The reply should name one outcome from Y for active, N for inactive

GET /call?item= `O=Cc1ccc2n1C[C@]1(C[C@H](O)[C@@H](CO)O1)OC2` returns the recorded outcome of this test. N

###

molecular target: Glucocorticoid receptor (Homo sapiens) (UniProt P04150); experiment: GR-EFC Redistribution (AID 451); conditions: CHO-K1 GR-EFC translocation, beta-gal luminescence, 2 h; further: potency means the concentration at half of the fitted maximal effect
Sequence (P04150 whole entry, looked up): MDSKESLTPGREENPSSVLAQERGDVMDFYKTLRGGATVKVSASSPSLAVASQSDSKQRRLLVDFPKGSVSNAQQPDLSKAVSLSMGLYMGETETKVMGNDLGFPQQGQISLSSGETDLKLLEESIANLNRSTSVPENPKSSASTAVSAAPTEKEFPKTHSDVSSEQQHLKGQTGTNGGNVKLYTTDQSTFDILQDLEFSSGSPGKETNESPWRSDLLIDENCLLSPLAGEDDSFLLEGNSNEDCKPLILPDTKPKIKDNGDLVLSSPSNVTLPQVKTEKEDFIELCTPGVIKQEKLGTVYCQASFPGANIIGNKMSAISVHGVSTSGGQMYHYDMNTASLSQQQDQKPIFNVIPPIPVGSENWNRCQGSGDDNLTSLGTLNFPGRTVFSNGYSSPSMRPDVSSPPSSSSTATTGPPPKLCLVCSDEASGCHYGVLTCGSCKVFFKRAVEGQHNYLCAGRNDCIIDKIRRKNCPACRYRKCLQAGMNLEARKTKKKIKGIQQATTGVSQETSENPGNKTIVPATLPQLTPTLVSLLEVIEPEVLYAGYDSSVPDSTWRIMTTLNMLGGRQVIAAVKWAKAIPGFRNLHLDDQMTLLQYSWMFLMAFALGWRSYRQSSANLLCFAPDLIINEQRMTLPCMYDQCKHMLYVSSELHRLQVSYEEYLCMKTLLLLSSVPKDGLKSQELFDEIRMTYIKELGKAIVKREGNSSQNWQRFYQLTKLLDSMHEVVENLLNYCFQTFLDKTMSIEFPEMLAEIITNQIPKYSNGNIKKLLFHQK
Calls of active or inactive are those of the source. The call rests on the fitted dose curve.
Measured Property: Potency

The following compounds have reported results that may help.
>>> reported("COc1ccccc1CN1CC2(CCN(S(C)(=O)=O)CC2)C1")
"> 46 µM (inactive)"
>>> reported("COc1ncc2nc(-c3ccc(F)cc3)c(=O)n(C)c2n1")
"> 46 µM (inactive)"
>>> reported("CN1CCN(c2ncc3nc(-c4ccc(Cl)cc4)c(=O)n(-c4ccccc4)c3n2)CC1")
"> 46 µM (inactive)"

I would be grateful if you could share the reported Potency for `c1csc(CNc2ncnc3ccc(-c4ccoc4)cc23)c1` . > 46 µM (inactive)

I would be grateful if you could share the reported Potency for `CN1CCN(c2cc(-c3ccoc3)ncn2)CC1` . > 46 µM (inactive)

###

test: SDT Cancer Cell Toxicity qHTS against the NCATS CANVASS Library (AID 1347365); conditions: SDT dog glioma viability, ATP luminescence, 72 h; series mostly up to 46.1 µM;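 further: SDT canine glioma cells 500 per well in 1536 well plates; on the % scale 0 is the no-effect control and ±100 the full control effect; nearly all actives have a fitted effect of over 60% in size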
Inconclusive results are not listed. Calls of active or inactive are those of the source. Calls come from the whole dose curve; as a rule, active = well fitted cell-killing curve with a large enough effect; inconclusive = small, poorly fitted or top-dose-only effect; inactive = flat fitted curve, though single readings scatter.
The reply should name one outcome from Y for active, N for inactive

>>> class("C/C=C1/C2=CCCN3C(=O)O[C@H]([C@H]1O)[C@H]23")
"N"

API: the following record is the query input.
GET /call?item= `C[C@@]12C[C@@H](C[C@@H]3C(=O)O[C@@H](c4ccoc4)[C@H](OC(=O)c4ccccc4)[C@@H]31)OC2=O` returns the recorded outcome of this test. N

###

target: Cytochrome P450 1A2 (Homo sapiens) (UniProt P05177); assay: p450-cyp1a2 (AID 410); conditions: recombinant CYP1A2, luciferin-ME demethylation, luminescence; series mostly up to 57 µM; further: potency means the concentration at half of the fitted maximal effect
Sequence (P05177 whole entry, looked up): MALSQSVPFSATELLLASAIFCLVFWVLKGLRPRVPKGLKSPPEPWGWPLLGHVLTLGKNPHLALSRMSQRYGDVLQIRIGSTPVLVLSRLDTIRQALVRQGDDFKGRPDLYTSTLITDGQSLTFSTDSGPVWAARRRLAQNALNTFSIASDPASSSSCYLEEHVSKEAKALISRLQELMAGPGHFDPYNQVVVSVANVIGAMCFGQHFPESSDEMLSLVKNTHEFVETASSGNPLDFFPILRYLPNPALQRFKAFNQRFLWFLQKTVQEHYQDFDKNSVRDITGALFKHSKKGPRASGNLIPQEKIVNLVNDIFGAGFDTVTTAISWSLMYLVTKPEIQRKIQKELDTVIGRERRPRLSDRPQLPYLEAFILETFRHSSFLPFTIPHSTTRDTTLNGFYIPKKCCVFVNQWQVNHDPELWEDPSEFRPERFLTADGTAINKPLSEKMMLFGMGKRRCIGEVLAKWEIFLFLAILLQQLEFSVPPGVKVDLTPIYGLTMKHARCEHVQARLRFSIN
Inconclusive results are not listed. Active and inactive are the calls of the source. Calls follow the shape of the full dose curve.
Measured Property: Potency

>>> reported("CN1CCN(c2ncncc2-c2ccccc2C(F)(F)F)CC1")
"31.6 µM (active)"
>>> reported("COc1ccccc1-c1cc(NCc2cccnc2)ncn1")
"0.316 µM (active)"
>>> reported("COc1ccc(CNc2ncnc3ccc(-c4ccccc4OC)cc23)c(OC)c1")
"3.16 µM (active)"
>>> reported("CNc1nc(-c2ccccc2CN(C)C)nc2ccccc12")
"3.16 µM (active)"
>>> reported("COc1ccc(NC(=O)N2CC[C@@]3(CCCN(C(=O)c4ccc(OC)cc4)C3)C2)cc1")
"25.1 µM (active)"

I would be grateful if you could share the reported Potency for `CC(=O)NCCNc1cc(-c2ccccc2CN(C)C)ncn1` . inactive

I would be grateful if you could share the reported Potency for `COCCNc1cc(-c2ccccc2C)ncn1` . 15.8 µM (active)

I would be grateful if you could share the reported Potency for `O=C(c1cnccn1)N1CCC2(CCCN(c3ccccc3)C2)CC1` . inactive

I would be grateful if you could share the reported Potency for `COc1ccc(NC(=O)N2CCCC3(CCN(C(=O)c4csnn4)CC3)C2)cc1` . inactive

###

test system: CP238; test: qHTS profiling for inhibitors of Plasmodium falciparum proliferation (AID 504749); further: nearly all actives have a fitted effect of over 60% in size; details: P. falciparum in erythrocytes, SYBR Green DNA, 72 h; series mostly up to 28.7 µM
Inconclusive results are not listed. Active and inactive are the calls of the source. Calls follow the shape of the dose curve; as a rule, active = well fitted inhibition curve with a large enough effect; inconclusive = small, poorly fitted or top-dose-only effect; inactive = flat fitted curve, though single readings scatter.
The reply should name one outcome from active, inactive

>>> class("C[C@@]12C(=O)OC(=O)[C@]1(C)[C@H]1CC[C@@H]2O1")
"active"
>>> class("CN1C(=O)CCC1c1cccnc1 (stereo not drawn)")
"inactive"
>>> class("CO[C@H]1/C=C/O[C@@]2(C)Oc3c(C)c(O)c4c(O)c(c(/C=N\\N5CCN(C6CCCC6)CC5)c(O)c4c3C2=O)NC(=O)/C(C)=C\\C=C\\[C@H](C)[C@H](O)[C@@H](C)[C@@H](O)[C@@H](C)[C@H](OC(C)=O)[C@@H]1C")
"active"

API: the following record is the query input.
GET /call?item= `CC(/C=C1\SC(=S)N(CC(=O)O)C1=O)=C\c1ccccc1` returns the recorded outcome of this test. inactive

###

Experiment: AP1 Signaling Pathway (AID 357);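 further: ME-180 reporter cells stimulated with EGF at its EC50 level; on the % scale 0 is the no-effect control and ±100 the full control effect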
Conditions: ME-180 (cervical carcinoma) AP-1-bla reporter, EGF-induced, beta-lactamase ratio, 5 h; at 7.69 µM (top of the series) unless noted
Method: NCGC Assay Overview: Activator protein-1 (AP-1), a transcription factor, plays an important role in tumor genesis by regulating genes involved in cell proliferation, differentiation, apoptosis, and angiogenesis. AP-1 activity is induced by a complex network of signaling pathways that involves extracellular signals, such as growth factors. […] Library compounds were measured for their ability to modulate positively or negatively the action of EC50 EGF on reporter gene activity. […]
Results filed as inconclusive are left out. The source made the active and inactive calls. Calls come from the whole dose curve; as a rule, active = well fitted curve in either direction with a large enough effect (not every such curve was filed as active); inconclusive = small, poorly fitted or top-dose-only effect, or another doubt; inactive = flat fitted curve, though single readings scatter.
Measured Property: activity change, negative = inhibition

The following compounds have reported results that may help.
>>> reported("CCNc1ncc2nc(C)c(=O)n(Cc3ccc(F)cc3)c2n1")
"-0.98% (inactive)"
>>> reported("O=c1c(CCc2ccccc2)nc2cnc(N3CCOCC3)nc2n1Cc1cccs1")
"-2.34% (inactive)"
>>> reported("O=C(c1cccc(F)c1)N1CCC2(CC1)CCN(c1cccc(-c3ccccc3)c1)CC2")
"-4.91% (inactive)"
>>> reported("Cn1c(=O)cnc2cnc(OCc3ccccc3)nc21")
"-10.8% (inactive)"
>>> reported("Cc1ccccc1-c1cncnc1N(C)Cc1ccco1")
"-3.79% (inactive)"

I would be grateful if you could share the reported activity change, negative = inhibition for `Cc1noc(C)c1-c1cc(Nc2ccccc2)ncn1` . -11.6% (inactive)

I would be grateful if you could share the reported activity change, negative = inhibition for `Cn1cccc1C(=O)N1CCC[C@@]2(CCN(c3ccccn3)C2)C1` . 0.459% (inactive)

###

test system: SC27B; assay: qHTS profiling for inhibitors of Plasmodium falciparum proliferation (AID 504749); further: nearly all actives have a fitted effect of over 60% in size; conditions: P. falciparum in erythrocytes, SYBR Green DNA, 72 h; series mostly up to 28.7 µM
Records with an inconclusive call do not appear. Calls of active or inactive are those of the source. The call rests on the fitted dose curve; in most records, active means well fitted inhibition curve with a large enough effect; inconclusive means small, poorly fitted or top-dose-only effect; inactive means flat fitted curve, though single readings scatter.
The reply should name one outcome from active, inactive

Record excerpt, results attached:
>>> class("CN=C(N)NCCCC(N)C(=O)O (configuration not stated)")
"inactive"
>>> class("COc1cc2c(cc1OC)C(c1ccccc1)CN(C)CC2 (configuration not stated)")
"inactive"

GET /call?item= `CC(/C=C1\SC(=S)N(CC(=O)O)C1=O)=C\c1ccccc1` returns the recorded outcome of this test. inactive

GET /call?item= `CO[C@H]1/C=C/O[C@@]2(C)Oc3c(C)c(O)c4c(O)c(c(/C=N\N5CCN(C6CCCC6)CC5)c(O)c4c3C2=O)NC(=O)/C(C)=C\C=C\[C@H](C)[C@H](O)[C@@H](C)[C@@H](O)[C@@H](C)[C@H](OC(C)=O)[C@@H]1C` returns the recorded outcome of this test. active

GET /call?item= C=C1CCC2[C@](C)(CO)C(O)CC[C@]2(C)C1C/C=C1/C(=O)OCC1O (some centres not stated) returns the recorded outcome of this test. inactive

GET /call?item= CC(C)C[C@H]1C(=O)N2CCCC2[C@]2(O)O[C@](NC(=O)[C@@H]3C=C4c5cccc6[nH]c(Br)c(c56)C[C@H]4N(C)C3)(C(C)C)C(=O)N12 (some centres not stated) returns the recorded outcome of this test. active

GET /call?item= `C[C@@H]1[C@H](O)[C@@H](C)/C=C/C=C/C=C/C=C/C=C/C=C/C=C/[C@H](O[C@@H]2O[C@H](C)[C@@H](O)[C@H](N)[C@@H]2O)C[C@@H]2O[C@](O)(C[C@@H](O)C[C@@H](O)[C@H](O)CC[C@@H](O)C[C@@H](O)CC(=O)O[C@H]1C)C[C@H](O)[C@H]2C(=O)O` returns the recorded outcome of this test. inactive

GET /call?item= `Oc1ccc(/C=C\c2cc(O)cc(O)c2)cc1` returns the recorded outcome of this test. inactive

GET /call?item= CN1C[C@H](C(=O)N[C@]2(C)O[C@@]3(O)C4CCCN4C(=O)[C@H](Cc4ccccc4)N3C2=O)C[C@@H]2c3cccc4[nH]cc(c34)C[C@H]21 (some centres not stated) returns the recorded outcome of this test. active

GET /call?item= CC(C)(C)[C@]1(O)CCN2CC3c4ccccc4CCc4cccc(c43)[C@@H]2C1 (some centres not stated) returns the recorded outcome of this test. active

GET /call?item= `C=C1/C(=C\C=C2/CCC[C@]3(C)[C@@H]([C@H](C)CCCC(C)(C)O)CC[C@@H]23)C[C@@H](O)C[C@@H]1O` returns the recorded outcome of this test. inactive

GET /call?item= CN1C(=O)CCC1c1cccnc1 (configuration not stated) returns the recorded outcome of this test. inactive
